pIC50 reference
Biological target: Alk (Homo sapiens)
Sequence (Q9UM73 1116-1392 limits assumed, species assumed): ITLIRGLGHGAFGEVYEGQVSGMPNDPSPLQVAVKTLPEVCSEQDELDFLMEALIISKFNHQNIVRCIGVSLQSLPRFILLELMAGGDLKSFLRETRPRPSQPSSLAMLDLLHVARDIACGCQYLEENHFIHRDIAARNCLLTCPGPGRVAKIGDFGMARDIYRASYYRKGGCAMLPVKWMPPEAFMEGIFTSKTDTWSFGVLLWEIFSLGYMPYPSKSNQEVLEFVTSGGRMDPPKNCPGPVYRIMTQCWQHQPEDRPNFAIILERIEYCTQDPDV
pIC50: −log10 of the molar value.
Property Label: pIC50

{"Compound": "COc1ccc(OC[C@H](O)CNc2cc[nH]c(=O)c2-c2nc3cc4c(cc3[nH]2)CN(C2CCN(C)CC2)C4=O)c(Cl)c1", "Endpoint Result": "5.30 to 6.30"}
{"Compound": "COCCCN1C(=O)c2cc3nc(-c4c(NC[C@@H](O)COc5ccc(C)cc5C)cc[nH]c4=O)[nH]c3cc2C1=O", "Endpoint Result": "< 4.82"}
{"Compound": "Cc1ccc(Cl)c(OC[C@H](O)CNc2cc[nH]c(=O)c2-c2nc3cc4c(cc3[nH]2)C(=O)N(C2CCN(C)CC2)C4)c1F", "Endpoint Result": "4.82 to 5.30"}
{"Compound": "Cc1ccc(OC[C@H](O)CNc2ccnc(O)c2-c2nc3cc4c(cc3[nH]2)C(=O)N(C2CCN(C)CC2)C4=O)c2c1CCC2", "Endpoint Result": "5.30 to 6.30"}
{"Compound": "Cc1ccc(OC[C@H](O)CNc2cc[nH]c(=O)c2-c2nc3cc4c(cc3[nH]2)C(=O)N(C2CCN(CCO)CC2)C4=O)c(C)c1", "Endpoint Result": "5.30 to 6.30"}
{"Compound": "CN1CCC(N2C(=O)c3cc4nc(-c5c(NCC(O)COc6ccc(Cl)cc6)cc[nH]c5=O)[nH]c4cc3C2=O)CC1 (stereo not shown)", "Endpoint Result": "5.30 to 6.30"}
{"Compound": "COc1cc(C#N)ccc1OC[C@H](O)CNc1ccnc(O)c1-c1nc2cc3c(cc2[nH]1)C(=O)N(C1CCN(C)CC1)C3=O [compound 90]", "Endpoint Result": "< 4.82"}
{"Compound": "COc1ccc(OC[C@H](O)CNc2cc[nH]c(=O)c2-c2nc3c(C)c4c(cc3[nH]2)C(=O)N(C2CCN(C)CC2)C4=O)c(C)c1Cl", "Endpoint Result": "5.30 to 6.30"}
{"Compound": "CN(C)CCN1CCC(N2C(=O)c3cc4nc(-c5c(NC[C@@H](O)COc6c(F)ccc(Cl)c6F)cc[nH]c5=O)[nH]c4cc3C2=O)CC1", "Endpoint Result": "5.30 to 6.30"}
{"Compound": "Cc1ccc(Cl)c(C)c1OC[C@H](O)CNc1cc[nH]c(=O)c1-c1nc2cc3c(cc2[nH]1)C(=O)N(C1CCN(C)CC1)C3=O", "Endpoint Result": "5.30 to 6.30"}
{"Compound": "Cc1c(Cl)cccc1OC[C@H](O)CNc1cc[nH]c(=O)c1-c1nc2cc3c(cc2[nH]1)C(=O)N(CC1CCN(CCO)CC1)C3=O", "Endpoint Result": "5.30 to 6.30"}
{"Compound": "CN1CCC(N2Cc3cc4nc(-c5c(NC[C@@H](O)COc6c(F)ccc(Cl)c6F)cc[nH]c5=O)[nH]c4cc3C2=O)CC1", "Endpoint Result": "4.82 to 5.30"}
{"Compound": "CN1CCC(N2C(=O)c3cc4nc(-c5c(NC[C@@H](O)COc6ccc(C#N)c(Cl)c6)ccnc5O)[nH]c4cc3C2=O)CC1", "Endpoint Result": "5.30 to 6.30"}

====

List of IC50 values.
Test system: H929 (multiple myeloma)
Assay: Cell proliferation inhibition, Cell Titer-Glo, H929
Format: cell-based
Settings: Homo sapiens, NCI-H929; cell proliferation assay, H929 cells
Property Label: IC50

{"Molecule": "COCCN1C(=O)c2cc3nc(-c4c(NC[C@@H](O)c5cccc(Cl)c5)cc[nH]c4=O)[nH]c3cc2C1=O [compound 36]", "Endpoint Result": "0.5 to 5 µM"}
{"Molecule": "CCN1CCC(N2Cc3cc4nc(-c5c(NC[C@@H](O)COc6ccc(C)cc6C)cc[nH]c5=O)[nH]c4cc3C2=O)CC1 [compound 144]", "Endpoint Result": "0.5 to 5 µM"}
{"Molecule": "CN1CCC(N2Cc3cc4nc(-c5c(NC[C@@H](O)COc6cc(F)ccc6Cl)cc[nH]c5=O)[nH]c4cc3C2=O)CC1 [compound 150]", "Endpoint Result": "5 to 15 µM"}
{"Molecule": "Cc1ccc(OC[C@H](O)CNc2cc[nH]c(=O)c2-c2nc3cc4c(cc3[nH]2)C(=O)N(CC(C)(C)CN(C)C)C4=O)c(C)c1 [compound 116]", "Endpoint Result": "> 15 µM"}
{"Molecule": "Cc1ccc(OCC(O)CNc2cc[nH]c(=O)c2-c2nc3cc4c(cc3[nH]2)C(=O)N(C2CCN(C)CC2)C4=O)c(C)c1 (stereo not shown) [compound 15]", "Endpoint Result": "0.5 to 5 µM"}
{"Molecule": "COc1cccc(OCC(O)CNc2cc[nH]c(=O)c2-c2nc3cc4c(cc3[nH]2)C(=O)N(C2CCN(C)CC2)C4=O)c1 (stereo not shown) [compound 6]", "Endpoint Result": "5 to 15 µM"}
{"Molecule": "CN1CCC(N2Cc3cc4[nH]c(-c5c(NC[C@@H](O)COc6c(F)cc(F)cc6Br)cc[nH]c5=O)nc4cc3C2=O)CC1 [compound 164]", "Endpoint Result": "5 to 15 µM"}
{"Molecule": "Cc1cc(C)c(OC[C@H](O)CNc2cc[nH]c(=O)c2-c2nc3cc4c(cc3[nH]2)C(=O)N(C2CCN(C)CC2)C4=O)c(C)c1 [compound 98]", "Endpoint Result": "5 to 15 µM"}
{"Molecule": "COc1cccc(OC[C@H](O)CNc2cc[nH]c(=O)c2-c2nc3cc4c(cc3[nH]2)C(=O)N(C2CCN(C)CC2)C4)c1C [compound 159]", "Endpoint Result": "5 to 15 µM"}
{"Molecule": "CN1CCC(N2Cc3cc4nc(-c5c(NC[C@@H](O)COc6c(F)ccc(F)c6Cl)cc[nH]c5=O)[nH]c4cc3C2=O)CC1 [compound 155]", "Endpoint Result": "5 to 15 µM"}
{"Molecule": "Cc1c(OC[C@H](O)CNc2cc[nH]c(=O)c2-c2nc3cc4c(cc3[nH]2)CN(C2CCN(C)CC2)C4=O)ccc2c1OCO2 [compound 169]", "Endpoint Result": "> 15 µM"}
{"Molecule": "Cc1ccc(OC[C@H](O)CNc2cc[nH]c(=O)c2-c2nc3cc4c(cc3[nH]2)C(=O)N(C2CCN(CCCO)CC2)C4=O)c(C)c1 [compound 129]", "Endpoint Result": "5 to 15 µM"}
{"Molecule": "Cc1c(Cl)cccc1OC[C@H](O)CNc1cc[nH]c(=O)c1-c1nc2cc3c(cc2[nH]1)C(=O)N(C1CCN(CCN(C)C)CC1)C3=O [compound 127]", "Endpoint Result": "> 15 µM"}

====

Biological target: IGF1 receptor (Homo sapiens, UniProt P08069)
Construct: MCF7 human breast cancer cells expressing IGF1 receptor; endogenous in cells
Sequence (P08069 741-1367 limits assumed): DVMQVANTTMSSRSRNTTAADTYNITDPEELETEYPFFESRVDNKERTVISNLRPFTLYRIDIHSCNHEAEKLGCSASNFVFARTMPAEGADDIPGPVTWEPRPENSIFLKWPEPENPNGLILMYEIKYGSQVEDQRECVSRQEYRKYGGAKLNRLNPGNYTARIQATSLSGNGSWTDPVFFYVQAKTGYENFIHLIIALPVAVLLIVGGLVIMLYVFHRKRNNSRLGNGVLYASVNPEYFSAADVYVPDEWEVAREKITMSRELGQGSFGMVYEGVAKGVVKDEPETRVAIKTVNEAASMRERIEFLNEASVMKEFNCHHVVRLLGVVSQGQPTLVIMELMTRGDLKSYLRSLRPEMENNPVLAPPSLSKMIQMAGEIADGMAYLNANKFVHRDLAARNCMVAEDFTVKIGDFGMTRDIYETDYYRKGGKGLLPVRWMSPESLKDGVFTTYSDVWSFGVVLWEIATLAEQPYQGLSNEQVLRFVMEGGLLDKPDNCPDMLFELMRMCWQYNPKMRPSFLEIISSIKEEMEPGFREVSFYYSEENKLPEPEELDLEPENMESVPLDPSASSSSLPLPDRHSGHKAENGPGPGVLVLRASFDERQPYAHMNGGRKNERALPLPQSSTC
Sequence (P08069 31-736 partner limits assumed): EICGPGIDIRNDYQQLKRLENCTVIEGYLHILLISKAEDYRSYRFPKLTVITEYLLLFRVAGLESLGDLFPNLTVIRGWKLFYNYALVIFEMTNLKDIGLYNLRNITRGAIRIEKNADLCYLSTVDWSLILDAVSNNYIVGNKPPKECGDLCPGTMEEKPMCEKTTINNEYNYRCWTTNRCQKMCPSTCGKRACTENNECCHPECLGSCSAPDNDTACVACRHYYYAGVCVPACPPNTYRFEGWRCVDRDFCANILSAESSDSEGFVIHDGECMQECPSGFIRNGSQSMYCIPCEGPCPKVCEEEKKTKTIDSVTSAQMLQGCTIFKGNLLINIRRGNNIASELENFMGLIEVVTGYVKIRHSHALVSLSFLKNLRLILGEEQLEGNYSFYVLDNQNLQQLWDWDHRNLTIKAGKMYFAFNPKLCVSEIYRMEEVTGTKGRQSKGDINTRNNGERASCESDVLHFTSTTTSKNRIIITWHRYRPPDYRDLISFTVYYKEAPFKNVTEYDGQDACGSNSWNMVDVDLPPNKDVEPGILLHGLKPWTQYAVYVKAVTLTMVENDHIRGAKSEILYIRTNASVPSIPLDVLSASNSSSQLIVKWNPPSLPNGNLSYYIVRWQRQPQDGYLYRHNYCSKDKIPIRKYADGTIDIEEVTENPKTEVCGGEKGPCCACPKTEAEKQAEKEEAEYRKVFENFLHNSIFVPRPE
Assay: ELISA-based assay of IGF1 receptor autophosphorylation inhibition in cells
Settings: IGF1R phosphorylation inhibition in MCF7 cells
pIC50: −log10 of the molar value.
Property Label: pIC50

{"Compound": "O=C1c2cc3nc(-c4c(NC[C@@H](O)c5cccc(Cl)c5)cc[nH]c4=O)[nH]c3cc2C(=O)N1CCN1CCCC1", "Endpoint Result": "< 4.82"}
{"Compound": "Cc1cc(C)c(OC[C@H](O)CNc2cc[nH]c(=O)c2-c2nc3cc4c(cc3[nH]2)C(=O)N(C2CCN(C)CC2)C4=O)c(CS(C)(=O)=O)c1", "Endpoint Result": "5.30 to 6.30"}
{"Compound": "Cc1ccc(OC[C@H](O)CNc2cc[nH]c(=O)c2-c2nc3c(C)c4c(cc3[nH]2)C(=O)N(C2CCN(C)CC2)C4)c(C)c1", "Endpoint Result": "5.30 to 6.30"}
{"Compound": "Cc1ccc(OC[C@H](O)CNc2cc[nH]c(=O)c2-c2nc3cc4c(c(C)c3[nH]2)CN(C2CCN(C)CC2)C4=O)c(C)c1", "Endpoint Result": "5.30 to 6.30"}
{"Compound": "COc1cccc(OCC(O)CNc2cc[nH]c(=O)c2-c2nc3cc4c(cc3[nH]2)C(=O)N(C2CCN(C)CC2)C4=O)c1 (stereo not drawn)", "Endpoint Result": "5.30 to 6.30"}
{"Compound": "CC(C)(CO)CN1C(=O)c2cc3nc(-c4c(NC[C@@H](O)c5cccc(Cl)c5)cc[nH]c4=O)[nH]c3cc2C1=O", "Endpoint Result": "4.82 to 5.30"}

====

Test system: H929 (multiple myeloma)
Assay: Cell proliferation inhibition, Cell Titer-Glo, H929
Type: cell-based
Conditions: Homo sapiens, NCI-H929; cell proliferation assay, H929 cells
Source text: IGF1R and other tyrosine kinase inhibitors can inhibit the proliferation of certain cancer cell lines indicating their possible therapeutic utility for treating the corresponding cancer types. […] The plated cells are mixed with the Cell Titer-Glo developing reagent and counted in a luminescence multiwell plate reader according to the standard manufacturer's protocol to generate IC50 curves for cell proliferation inhibition. […]
pIC50: −log10 of the molar value.
Listed here are compounds together with their documented pIC50.
Property Label: pIC50

{"Compound": "Cc1c(Cl)cccc1OC[C@H](O)CNc1cc[nH]c(=O)c1-c1nc2cc3c(cc2[nH]1)C(=O)N(C1CCN(CCCO)CC1)C3=O", "Endpoint Result": "< 4.82"}
{"Compound": "Cc1ccc(OC[C@H](O)CNc2cc[nH]c(=O)c2-c2nc3cc4c(cc3[nH]2)CN(C2CCN(C)CC2)C4=O)c(C)c1", "Endpoint Result": "5.30 to 6.30"}
{"Compound": "COC[C@@H](C)N1C(=O)c2cc3nc(-c4c(NC[C@@H](O)c5cccc(Cl)c5)cc[nH]c4=O)[nH]c3cc2C1=O", "Endpoint Result": "< 4.82"}
{"Compound": "CC(=N)N1CCC(N2C(=O)c3cc4nc(-c5c(NC[C@@H](O)COc6ccc(C)cc6C)cc[nH]c5=O)[nH]c4cc3C2=O)CC1", "Endpoint Result": "4.82 to 5.30"}
{"Compound": "Cc1ccc(OCC(O)CNc2cc[nH]c(=O)c2-c2nc3cc4c(cc3[nH]2)C(=O)N(CC2CCN(CCO)CC2)C4=O)c(C)c1 (stereo not shown)", "Endpoint Result": "5.30 to 6.30"}
{"Compound": "COc1ccc2c(ccn2C[C@H](O)CNc2cc[nH]c(=O)c2-c2nc3cc4c(cc3[nH]2)C(=O)N(C2CCN(C)CC2)C4=O)c1", "Endpoint Result": "< 4.82"}
{"Compound": "Cc1ccc(OC[C@H](O)CNc2cc[nH]c(=O)c2-c2nc3cc4c(cc3[nH]2)C(=O)N(C2CCN(CCO)CC2)C4=O)c(C)c1", "Endpoint Result": "< 4.82"}
{"Compound": "CN1CCC(N2C(=O)c3cc4nc(-c5c(NC[C@@H](O)COc6ccc7c8c6CCCN8CCC7)cc[nH]c5=O)[nH]c4cc3C2=O)CC1", "Endpoint Result": "< 4.82"}
{"Compound": "CN1CCC(N2Cc3cc4nc(-c5c(NC[C@@H](O)c6cccc(Cl)c6)cc[nH]c5=O)[nH]c4cc3C2=O)CC1", "Endpoint Result": "4.82 to 5.30"}
{"Compound": "Cc1ccc(OC[C@@H](O)CNc2cc[nH]c(=O)c2-c2nc3cc4c(cc3[nH]2)C(=O)N([C@H]2CCN(C)C2)C4=O)c(C)c1", "Endpoint Result": "4.82 to 5.30"}
{"Compound": "CN1CCC(N2C(=O)c3cc4nc(-c5c(NC[C@@H](O)c6cccc(Cl)c6)cc[nH]c5=O)[nH]c4cc3C2=O)CC1", "Endpoint Result": "5.30 to 6.30"}
{"Compound": "CN1CCC(N2Cc3cc4[nH]c(-c5c(NC[C@@H](O)COc6ccccc6Br)cc[nH]c5=O)nc4cc3C2=O)CC1", "Endpoint Result": "5.30 to 6.30"}
{"Compound": "COc1ccc(OC[C@H](O)CNc2cc[nH]c(=O)c2-c2nc3cc4c(cc3[nH]2)C(=O)N(C2CCN(C)CC2)C4=O)c(OC)c1OC", "Endpoint Result": "5.30 to 6.30"}
